- Test system: HCI16 (cells of a triple-negative basal-like breast cancer xenograft)
- test.method.notes: cell viability (% of vehicle); higher = less cytotoxic
- measurement.setup: 10 µM; 72 h
Form field: cell viability (one value per entry).
endpoint.label: cell viability

{"columns": ["compound", "assay.result"],
 "data": [
  ["OC[C@@H](O)[C@@H](O)[C@H](O)[C@@H](O)CO", 120],
  ["COc1cc(NC(C)CCCN)c2ncccc2c1.O=P(O)(O)O.O=P(O)(O)O (stereo not drawn) [Primaquine Diphosphate]", 116],
  ["NC(=O)c1ccc(I)c([N+](=O)[O-])c1", 106]
]}

* * *

- System: HCI11 (cells of an ER-positive luminal breast cancer xenograft)
- test.method.notes: cell viability (% of vehicle); higher = less cytotoxic
- measurement.setup: 10 µM; 72 h

{"columns": ["compound", "cell viability"],
 "data": [
  ["CCOc1ccc(Cc2cc(C3OC(CO)C(O)C(O)C3O)ccc2Cl)cc1 (configuration not stated)", 110],
  ["C[N+](C)(C)CC(O)CC(=O)O.[Cl-] (racemic) [DL-Carnitine HCl]", 101],
  ["CCn1cc(C(=O)O)c(=O)c2cc(F)c(N3CCNCC3)cc21", 101],
  ["Cl.NC(CO)C(=O)NNCc1ccc(O)c(O)c1O (configuration not stated) [Benserazide HCl]", 44.9],
  ["CCOC(=O)C(CCc1ccccc1)NC(C)C(=O)N1C(C(=O)O)CC2CCCC21 (configuration not stated)", 91.6],
  ["CCc1c(Cl)c(O)c(Cl)c(O)c1C(=O)OC1C(C)OC(OCC2=CC=CCC(O)C(C)=CC(CC)C(OC3OC(C)(C)C(OC(=O)C(C)C)C(O)C3O)C(C)=CC(C)=CCC(C(C)O)OC2=O)C(OC)C1O (configuration not stated)", 72.7],
  ["COC(=O)C1=C(C)NC(C)=C(C(=O)OC)C1c1ccccc1[N+](=O)[O-]", 71.2]
]}

* * *

- Tested on: HCI16
- test.method.notes: cell viability (% of vehicle); higher = less cytotoxic
- measurement.setup: 10 µM; 72 h
endpoint.label: cell viability

{"columns": ["compound", "endpoint.label", "assay.result"],
 "data": [
  ["CC12CC3CC(C)(C1)CC(N)(C3)C2.Cl [Memantine hydrochloride]", "cell viability", 98.2],
  ["CC[C@@]1(O)C(=O)OCc2c1cc1n(c2=O)Cc2cc3c(CN(C)C)c(O)ccc3nc2-1.Cl [Topotecan HCl]", "cell viability", 69.1],
  ["Cc1cc(Nc2cc(CN3CCOCC3)c3nc(C)c(Cc4ccc(Cl)cc4F)n3n2)n[nH]1", "cell viability", 199],
  ["CCNC(=O)CCCC=CCC1C(O)CC(O)C1C=CC(O)CCc1ccccc1 (stereo unspecified)", "cell viability", 144],
  ["CC(C)(C)NCC(O)COc1nsnc1N1CCOCC1.O=C(O)C=CC(=O)O (stereo unspecified) [Timolol Maleate]", "cell viability", 120],
  ["CCCC(CCC)C(=O)O.CCCC(CCC)C(=O)[O-].[Na+] [Divalproex Sodium]", "cell viability", 94.5]
]}

* * *

Measured cell viability accompanies every entry in the list below.
- Test system: HCI16
- test.method.notes: cell viability (% of vehicle); higher = less cytotoxic
- measurement.setup: 10 µM; 72 h
endpoint.label: cell viability

{"columns": ["compound", "assay.result"],
 "data": [
  ["CC1=NS(=O)(=O)c2cc(Cl)ccc2N1 [Diazoxide]", 102],
  ["Cc1cnc(C(=O)O)c[n+]1[O-]", 103],
  ["Cl.Nc1c2c(nc3ccccc13)CCCC2 [Tacrine hydrochloride]", 98.3]
]}

* * *

- Tested on: WHIM2 (cells of a triple-negative basal-like breast cancer xenograft)
- test.method.notes: cell viability (% of vehicle); higher = less cytotoxic
- measurement.setup: 10 µM; 72 h
Below: a set of entries, each annotated with reported cell viability.
endpoint.label: cell viability

{"columns": ["compound", "assay.result"],
 "data": [
  ["Cc1cn(C2CC(N=[N+]=[N-])C(CO)O2)c(=O)[nH]c1=O (stereo not given)", 98.2],
  ["Cc1ccccc1N1C(=O)c2cc(S(N)(=O)=O)c(Cl)cc2NC1C (stereo not given)", 103],
  ["CC(=O)C1CCC2C3CC=C4CC(O)CCC4(C)C3CCC12C (stereo not given)", 99],
  ["COc1ccc2cc([C@H](C)C(=O)[O-])ccc2c1.[Na+] [Naproxen Sodium]", 102],
  ["CCCOc1ccc(C(=O)OCCN(CC)CC)cc1N.Cl [Proparacaine HCl]", 97.1]
]}

* * *

- Tested on: UCD52 (cells of a triple-negative basal-like breast cancer xenograft)
- test.method.notes: cell viability (% of vehicle); higher = less cytotoxic
- measurement.setup: 10 µM; 72 h

{"columns": ["molecule", "measurement.target", "cell viability"],
 "data": [
  ["CCOc1cc(CC(=O)NC(CC(C)C)c2ccccc2N2CCCCC2)ccc1C(=O)O (stereo not drawn) [Repaglinide]", "UCD52", 80.7],
  ["CN1C2CCC1CC(OC(c1ccccc1)c1ccccc1)C2.CS(=O)(=O)O (stereo not drawn) [Benztropine mesylate]", "UCD52", 80.4],
  ["CC(=O)O[C@@]12CO[C@@H]1C[C@H](O)[C@@]1(C)C(=O)[C@H](O)C3=C(C)[C@@H](OC(=O)[C@H](O)[C@@H](NC(=O)OC(C)(C)C)c4ccccc4)C[C@@](O)([C@@H](OC(=O)c4ccccc4)[C@H]21)C3(C)C [Docetaxel]", "UCD52", 82]
]}

* * *

# cell viability values compiled below
- Tested on: HCI09 (cells of a triple-negative luminal androgen receptor type breast cancer xenograft)
- test.method.notes: cell viability (% of vehicle); higher = less cytotoxic
- measurement.setup: 10 µM; 72 h

{"columns": ["compound", "cell viability"],
 "data": [
  ["CCC1OC(=O)C(C)C(OC2CC(C)(OC)C(O)C(C)O2)C(C)C(OC2OC(C)CC(N(C)C)C2O)C(C)(O)CC(C)CN(C)C(C)C(O)C1(C)O (stereo unspecified)", 116],
  ["CCCc1nc(C)c2c(=O)nc(-c3cc(S(=O)(=O)N4CCN(CC)CC4)ccc3OCC)[nH]n12", 113],
  ["CN(C)C(=O)COC(=O)Cc1ccc(OC(=O)c2ccc(N=C(N)N)cc2)cc1.CS(=O)(=O)O [Camostat Mesilate]", 85.2],
  ["Cl.NNc1nncc2ccccc12 [Hydralazine HCl]", 113],
  ["CC1(C)CCC(c2ccc(Cl)cc2)=C(CN2CCN(c3ccc(C(=O)NS(=O)(=O)c4ccc(NC(CCN5CCOCC5)CSc5ccccc5)c(S(=O)(=O)C(F)(F)F)c4)cc3)CC2)C1 (stereo unspecified)", 21.8],
  ["CCCSc1ccc2nc(NC(=O)OC)[nH]c2c1", 172],
  ["CO[C@H]1C[C@@H]2CC[C@@H](C)[C@@](O)(O2)C(=O)C(=O)N2CCCC[C@H]2C(=O)O[C@H]([C@H](C)C[C@@H]2CC[C@@H](OC(=O)C(C)(CO)CO)[C@H](OC)C2)CC(=O)[C@H](C)/C=C(\\C)[C@@H](O)[C@@H](OC)C(=O)[C@H](C)C[C@H](C)/C=C/C=C/C=C/1C", 26.7],
  ["CC1(C)O[C@@H]2C[C@H]3[C@@H]4CCC5=CC(=O)CC[C@]5(C)[C@@]4(F)[C@@H](O)C[C@]3(C)[C@]2(C(=O)CCl)O1 [Halcinonide]", 146],
  ["CC(=O)OCC(=O)C1(O)C(C)CC2C3CCC4=CC(=O)C=CC4(C)C3(F)C(O)CC21C (stereo unspecified) [Dexamethasone acetate]", 131],
  ["CN(C)c1cc(NC(=O)CNC(C)(C)C)c(O)c2c1CC1CC3C(N(C)C)C(=O)C(C(N)=O)=C(O)C3(O)C(=O)C1=C2O (stereo unspecified)", 95.8],
  ["COc1cc(C(=O)O)ccc1NC(=O)C1NC(CC(C)(C)C)C(C#N)(c2ccc(Cl)cc2F)C1c1cccc(Cl)c1F (stereo unspecified)", 37.1],
  ["Cc1cc(C2CCCCC2)n(O)c(=O)c1.NCCO", 31.7],
  ["Cc1c(NC(=O)c2cccnc2)c(=O)n(-c2ccccc2)n1C", 116],
  ["CCC1(c2ccccc2)C(=O)NCNC1=O", 105],
  ["CC(=O)OC1(C(C)=O)CCC2C3CC(C)C4=CC(=O)CCC4(C)C3CCC21C (stereo unspecified) [Medroxyprogesterone acetate]", 98.5],
  ["CC(=O)[C@@]1(O)CC[C@H]2[C@@H]3CCC4=CC(=O)CCC4=C3[C@@H](c3ccc(N(C)C)cc3)C[C@@]21C", 36.6]
]}

* * *

- Test system: UCD52
- test.method.notes: cell viability (% of vehicle); higher = less cytotoxic
- measurement.setup: 1 µM; 72 h
# rule met = cell viability below 90 (exclusive); rule not met = cell viability at/above 90

{"columns": ["compound", "class.label"],
 "data": [
  ["O=C(O)c1cc(O)c(O)c(O)c1", "rule not met"],
  ["CCOc1cc2ncc(C#N)c(Nc3ccc(OCc4ccccn4)c(Cl)c3)c2cc1NC(=O)C=CCN(C)C", "rule met"],
  ["Clc1ccc(C(Cn2ccnc2)OCc2c(Cl)cccc2Cl)c(Cl)c1.O=[N+]([O-])O (stereo unspecified) [Isoconazole nitrate]", "rule not met"],
  ["CNC(=O)c1cc(Oc2ccc(NC(=O)Nc3ccc(Cl)c(C(F)(F)F)c3)c(F)c2)ccn1.Cl [Regorafenib hydrochloride]", "rule met"],
  ["Nc1ncn(C2OC(CO)C(O)C2O)c(=O)n1 (stereo unspecified)", "rule met"],
  ["C=C1C(=CC=C2CCCC3(C)C2CCC3C(C)C=CC(C)C(C)C)CC(O)CC1O (stereo unspecified)", "rule met"],
  ["CC(NCCCc1cccc(C(F)(F)F)c1)c1cccc2ccccc12.Cl (stereo unspecified) [Cinacalcet HCl]", "rule met"],
  ["CCN(CC)CCNC(=O)c1c(C)[nH]c(C=C2C(=O)Nc3ccc(F)cc32)c1C", "rule met"],
  ["CNCCC(Oc1ccc(C(F)(F)F)cc1)c1ccccc1.Cl (stereo unspecified) [Fluoxetine HCl]", "rule met"],
  ["CC[C@@]1(O)C(=O)OCc2c1cc1n(c2=O)Cc2cc3c(CN(C)C)c(O)ccc3nc2-1.Cl [Topotecan HCl]", "rule not met"],
  ["CCOC(=O)C1=C(COCCN)NC(C)=C(C(=O)OC)C1c1ccccc1Cl (stereo unspecified)", "rule not met"],
  ["CC(C)CC(NC(=O)C(NC(=O)c1cccc(-c2ccccc2)n1)C(C)O)B(O)O (stereo unspecified)", "rule met"],
  ["CS(=O)(=O)O.Cc1c(O)cccc1C(=O)NC(CSc1ccccc1)C(O)CN1CC2CCCCC2CC1C(=O)NC(C)(C)C (stereo unspecified) [Nelfinavir Mesylate]", "rule met"]
]}
